Test system: HCT-15 colon
Assay: NCI tumour cell line growth inhibition, 48 h
observed property: TGI

Lab note: `O=C1c2ccccc2C(=O)C1(O)c1c[nH]c2ccccc12` gave TGI of > 100 µM

TGI reported for this molecule `CN(C)CCCN=c1c2ccccc2n(O)c2ccccc12` : > 100 µM

Lab book: TGI of `CCOC(=O)c1cn2c(n1)sc1cc(Cl)ccc12` noted as > 100 µM

Notebook: `COc1cc(OC)c2c(C)cc(=O)oc2c1` , TGI read as > 100 µM

Reported TGI ( `N#Cc1cc(-c2cc3ccccc3o2)oc1N` ) = 13 µM

Lab book: TGI of `COc1ccc(C(=O)c2cc(C)c(OC)c(C)c2)cc1OC(=O)CCl` noted as > 100 µM

Just so you know, measured TGI for `CN(C(=O)Cc1cccc(N=C=S)c1)[C@H]1CCCC[C@@H]1N1CCCC1` came out at 31.2 µM

What the record says about `COC1=C(OC)C(=O)C(Cc2c(C)nc3sccn23)=C(C)C1=O` : TGI is 41 µM

Recorded result, COC(=O)C(CC(=O)Nc1ccc(C)cc1)C(=O)C(=O)Nc1c(C(C)C)cccc1C(C)C (stereo unspecified) , TGI: > 100 µM

Note to self: TGI recorded for `N#Cc1c(-c2ccccc2)[nH]c2ccc(Cl)cc2c1=O` was > 100 µM

Please fill in: TGI reported for `CCCc1c(O)nc(Nc2nc3ccccc3[nH]2)[nH]c1=O` = > 100 µM

====

Test system: NCI-H23 lung
Assay: NCI tumour cell line growth inhibition, 48 h
Give measured TGI for each item. Keep answers brief.

Please fill in: TGI reported for COC(=O)C(CC(=O)Nc1ccc(C)cc1)C(=O)C(=O)Nc1c(C(C)C)cccc1C(C)C (centres undefined) = > 100 µM

Measured TGI, `COC(=O)C12CC3CC(CC(C(=O)O)(C3)C1)C2` : > 100 µM

What the record says about `CCN1CCN(c2nc3ccccc3c3c2CCOc2ccccc2-3)CC1` : TGI is > 100 µM

For reference, reported TGI for CCN(CC)C1CC(O[C@H]2C[C@](O)(C(=O)CO)Cc3c(O)c4c(c(O)c32)C(=O)c2c(OC)cccc2C4=O)OC(C)C1O (some centres undefined) stands at 0.154 µM

Reported TGI for CCCCC1Cc2ccccc2-c2nc3ccccc3n21 (centres undefined) was 32 µM

Form field TGI, entry `Cc1ccc(S(=O)(=O)N/N=C2/CCCOC2)cc1` : > 100 µM

Reported TGI of `O=C1c2ccccc2C(=O)C1(O)c1c[nH]c2ccccc12` : > 100 µM

Record `COc1cc(-c2nc3ccccn3c2/N=C/c2cc(Br)cc(Br)c2O)ccc1O` , field TGI: 67.9 µM

Entry under test: `CCc1cc(Cc2cc(CC)c(NC(=O)C(=O)CC(=O)c3sc(-c4cccnc4)nc3C)c(CC)c2)cc(CC)c1NC(=O)C(=O)CC(=O)c1sc(-c2cccnc2)nc1C` . Its TGI was > 100 µM

====

Tested on: OVCAR-3 ovarian
Assay: NCI tumour cell line growth inhibition, 48 h; in the data active means GI50 below about 0.43 µM; inactive means the rest
One label from this list, please: true (1) (active), false (0) (inactive)

Recorded test call requested for CCCC(CCC)NCC(O)c1cc(-c2ccc(C(F)(F)F)cc2)nc(C(F)(F)F)c1 (stereo unspecified)
false (0)

Dear colleague, could you share the recorded outcome for `C=C1C(=O)O[C@H]2[C@H]1CC/C(COC(=O)NCCCCNC(=O)OC/C1=C/CC[C@@]3(C)O[C@H]3[C@H]3OC(=O)C(=C)[C@@H]3CC1)=C\CC[C@@]1(C)O[C@@H]21` when you have a moment?
false (0)

Call for entry `CC1=CC(=O)C=CC1=O` :
false (0)

What did the test return for `C/C(=N\Nc1ccc(Cl)cn1)c1ccc2ccccc2n1` ?
false (0)

Which result was noted for this molecule in the test: `NS(=O)(=O)c1ccc(-c2ccc3c(NC(=O)C4CC4)n[nH]c3c2)cc1`
false (0)

Answer briefly: the call reported for `CC(C)c1ccc(-c2cc(-c3cn[nH]c3-c3ccccn3)ccn2)cc1` in this assay.
false (0)

I'd appreciate the recorded outcome for `COc1cc2c3c(n(CCCN)c(=O)c2cc1OC)-c1ccc(C#N)cc1C3=O` from this test.
false (0)

Test call for this molecule, please: `CCNCCNc1cc(-c2ccc(C(F)(F)F)cc2)c(C#N)c2nc3ccccc3n12`
true (1)

Recorded test outcome, item `COc1ccc(-c2[nH]c3ccc(OC)cc3c2/C=C(\C#N)S(=O)(=O)c2ccccc2)cc1`
true (1)

Tell me the recorded outcome of this test for `NC(=O)c1cc(Cl)ccc1NC(=O)/C=C/c1ccccc1` .
false (0)

Per the records of this test, what outcome belongs to `COc1ccc(C(=O)c2cc(C)c(OC)c(C)c2)c(OC)c1O` ?
true (1)
